# Tested System: sucrose transporter from spinach (Spinacia oleracea)
# Construct: which contain, as inserts, the cDNA for the sucrose transporter from spinach; expressed in transfected cells; host or cells: Saccharomyces cerevisiae YSH2.64-1A suc- with integrated potato sucrose synthase (susy), transformed with YEplac112A1NE-S21
# Sequence (Q03411 whole entry): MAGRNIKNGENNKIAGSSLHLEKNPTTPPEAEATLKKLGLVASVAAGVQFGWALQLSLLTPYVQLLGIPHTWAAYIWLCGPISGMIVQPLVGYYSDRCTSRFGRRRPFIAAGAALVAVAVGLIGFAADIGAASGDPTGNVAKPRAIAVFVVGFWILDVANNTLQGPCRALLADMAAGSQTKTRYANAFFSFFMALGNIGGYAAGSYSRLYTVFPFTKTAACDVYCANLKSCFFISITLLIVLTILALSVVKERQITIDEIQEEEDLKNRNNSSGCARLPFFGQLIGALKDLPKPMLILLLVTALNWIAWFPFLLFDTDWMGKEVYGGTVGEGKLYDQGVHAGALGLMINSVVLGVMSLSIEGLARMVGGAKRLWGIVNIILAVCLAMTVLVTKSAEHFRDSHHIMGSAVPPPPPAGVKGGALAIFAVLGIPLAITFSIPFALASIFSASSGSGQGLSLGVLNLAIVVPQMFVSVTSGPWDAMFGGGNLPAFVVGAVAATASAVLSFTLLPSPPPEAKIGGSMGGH
# Method Summary: Competition experiment with various sugars as competitor for the labelled sucrose in yeast YEplac112A1NE-S21
# Type: cell-based
# Particulars: 2mM competitor; in relation to YEplac112A1NE-S21 control = 100; read-out: sucrose transport (%)
Value Type: activity at 2000 µM (%)
Give just the numeric value; % need not be written.

Sure, the documented activity at 2000 µM for OC[C@H]1O[C@H](O[C@H]2[C@H](O)[C@@H](O)[C@H](O)O[C@@H]2CO)[C@H](O)[C@@H](O)[C@@H]1O is 58

Sure, the documented activity at 2000 µM for OC[C@H]1O[C@@](CO)(O[C@H]2O[C@H](CO)[C@@H](O)[C@H](O)[C@H]2O)[C@@H](O)[C@@H]1O is 28

Sure, the documented activity at 2000 µM for OC[C@H]1O[C@@H](O[C@H]2[C@H](O)[C@@H](O)C(O)O[C@@H]2CO)[C@H](O)[C@@H](O)[C@H]1O (some centres unmarked) is 91

Sure, the documented activity at 2000 µM for O=C(CCc1ccc(O)cc1)c1c(O)cc(O)cc1O[C@@H]1O[C@H](CO)[C@@H](O)[C@H](O)[C@H]1O is 16

Sure, the documented activity at 2000 µM for OC[C@H]1OC(Oc2ccccc2)[C@H](O)[C@@H](O)[C@@H]1O (some centres unmarked) [phenylglucoside] is 7
